test system: Diet Induced Obese (DIO) C57BL/6 mice; test: 10 day DIO mouse model, weight loss vs. vehicle; assay type: in vivo; details: 240 h, 1.0 mpk sc once a day for 10 days
Reported inhibition in vivo at 1 mg/kg values are given for each entry in this list.
Numeric only. Scale: %

| molecule | inhibition in vivo at 1 mg/kg (%) |
| --- | --- |
| CO[C@@H]1[C@H](OC(=O)N[C@H](c2noc(=O)[nH]2)C(C)C)CC[C@]2(CO2)[C@H]1[C@@]1(C)O[C@@H]1CC=C(C)C | 2.9 |

The reported inhibition in vivo at 1 mg/kg of the molecule CO[C@@H]1[C@H](OC(=O)N[C@H](c2cc(=O)cc[nH]2)C(C)C)CC[C@]2(CO2)[C@H]1[C@@]1(C)O[C@@H]1CC=C(C)C was 3.3

====

biological target: recombinant human MetAP2 (Homo sapiens, UniProt P50579); construct: Flag; made in house; test: Recombinant human MetAP2 enzyme inhibition assay (MAS peptide / amino acid oxidase / Amplex Ultrared readout); assay type: biochemical; details: Flag tagged human recombinant MetAP2, 25 minutes at 25° C.
Sequence (P50579 whole entry): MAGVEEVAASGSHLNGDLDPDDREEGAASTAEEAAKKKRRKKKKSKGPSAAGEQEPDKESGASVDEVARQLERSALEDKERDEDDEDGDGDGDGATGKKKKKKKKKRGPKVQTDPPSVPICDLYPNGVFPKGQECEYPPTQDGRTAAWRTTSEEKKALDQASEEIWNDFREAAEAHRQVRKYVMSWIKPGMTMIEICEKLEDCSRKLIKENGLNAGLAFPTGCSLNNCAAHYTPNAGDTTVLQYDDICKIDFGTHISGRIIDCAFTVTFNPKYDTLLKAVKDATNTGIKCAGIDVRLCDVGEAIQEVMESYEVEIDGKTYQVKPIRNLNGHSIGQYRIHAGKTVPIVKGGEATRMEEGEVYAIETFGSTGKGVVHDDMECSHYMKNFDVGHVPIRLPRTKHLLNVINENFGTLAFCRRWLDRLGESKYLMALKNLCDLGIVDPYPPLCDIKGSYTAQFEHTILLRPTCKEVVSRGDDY
pIC50: −log10 of the molar value. Counter-ions that a name gives are not always drawn.
observable: pIC50

Worked cases, answers included:
| compound | endpoint-result |
| --- | --- |
| CNc1nnc([C@H](NC(=O)O[C@@H]2CC[C@]3(CO3)[C@@H]([C@@]3(C)O[C@@H]3CC=C(C)C)[C@@H]2OC)C(C)C)s1 | > 7.30 |
| CO[C@@H]1[C@H](OC(=O)N[C@H](c2cc(=O)cc[nH]2)C(C)C)CC[C@]2(CO2)[C@H]1[C@@]1(C)O[C@@H]1CC=C(C)C | > 7.30 |
| CO[C@@H]1[C@H](OC(=O)N[C@H](c2ccc(N3CCOCC3)nc2)C(C)C)CC[C@]2(CO2)[C@H]1[C@@]1(C)O[C@@H]1CC=C(C)C | 6.30 to 7.30 |
| CO[C@@H]1[C@H](OC(=O)N[C@H](Cc2nnc[nH]2)C(C)C)CC[C@]2(CO2)[C@H]1[C@@]1(C)O[C@@H]1CC=C(C)C | > 7.30 |
| CO[C@@H]1[C@H](OC(=O)N[C@@H](c2noc(=O)[nH]2)C(C)C)CC[C@]2(CO2)[C@H]1[C@@]1(C)O[C@@H]1CC=C(C)C | 6.30 to 7.30 |

response.value for CO[C@@H]1[C@H](OC(=O)N[C@@H](c2cn(C[C@H]3CCN(C)C3)cn2)C(C)C)CC[C@]2(CO2)[C@H]1[C@@]1(C)O[C@@H]1CC=C(C)C [Example 12, formate] (field: pIC50) = 6.30 to 7.30

Recorded result, CO[C@@H]1[C@H](OC(=O)N[C@H](c2cn(C[C@H]3CCN(C)C3)c(C)n2)C(C)C)CC[C@]2(CO2)[C@H]1[C@@]1(C)O[C@@H]1CC=C(C)C , pIC50: 6.30 to 7.30

Memo: CO[C@@H]1[C@H](OC(=O)N[C@H](c2nnc[nH]2)C(C)C)CC[C@]2(CO2)[C@H]1[C@@]1(C)O[C@@H]1CC=C(C)C , reported pIC50: > 7.30

pIC50 recorded for this compound, CO[C@@H]1[C@H](OC(=O)N[C@H](c2cn(C[C@@H]3CCCN3C)cn2)C(C)C)CC[C@]2(CO2)[C@H]1[C@@]1(C)O[C@@H]1CC=C(C)C [Example 14, formate] , is > 7.30

====

molecular target: recombinant human MetAP2 (Homo sapiens); construct: Flag; experiment: Recombinant human MetAP2 enzyme inhibition assay (MAS peptide / amino acid oxidase / Amplex Ultrared readout); settings: Flag tagged human recombinant MetAP2, 25 minutes at 25° C.
pIC50: −log10 of the molar value. Counter-ions that a name gives are not always drawn.
pIC50 values by entry

Below are worked cases with known answers.
| compound | test-target | endpoint-result |
| --- | --- | --- |
| CO[C@@H]1[C@H](OC(=O)N[C@H](c2cn(CCN3CCOCC3)cn2)C(C)C)CC[C@]2(CO2)[C@H]1[C@@]1(C)O[C@@H]1CC=C(C)C [Example 17] | recombinant human MetAP2 (Homo sapiens) | 6.30 to 7.30 |
| CNc1nnc(C[C@@H](NC(=O)O[C@@H]2CC[C@]3(CO3)[C@@H]([C@@]3(C)O[C@@H]3CC=C(C)C)[C@@H]2OC)C(C)C)o1 [Example 33] | recombinant human MetAP2 (Homo sapiens) | 6.30 to 7.30 |
| CO[C@@H]1[C@H](OC(=O)N[C@H](c2c[nH]nn2)C(C)C)CC[C@]2(CO2)[C@H]1[C@@]1(C)O[C@@H]1CC=C(C)C [Example 21] | recombinant human MetAP2 (Homo sapiens) | > 7.30 |
| CO[C@@H]1[C@H](OC(=O)N[C@H](c2cn(C[C@H]3CCCN3C)cn2)C(C)C)CC[C@]2(CO2)[C@H]1[C@@]1(C)O[C@@H]1CC=C(C)C [Example 16] | recombinant human MetAP2 (Homo sapiens) | 6.30 to 7.30 |
| CO[C@@H]1[C@H](OC(=O)N[C@H](Cc2nc(=O)o[nH]2)C(C)C)CC[C@]2(CO2)[C@H]1[C@@]1(C)O[C@@H]1CC=C(C)C [Example 30] | recombinant human MetAP2 (Homo sapiens) | 6.30 to 7.30 |

Okay, now this compound:
The reported value for CO[C@@H]1[C@H](OC(=O)N[C@H](c2nccn2C[C@@H]2CCCN2C)C(C)C)CC[C@]2(CO2)[C@H]1[C@@]1(C)O[C@@H]1CC=C(C)C [Example 6, formate] in terms of pIC50 is 6.30 to 7.30

====

Reported inhibition in vivo at 1 mg/kg values follow for various compounds
tested on: Diet Induced Obese (DIO) C57BL/6 mice; assay: 10 day DIO mouse model, weight loss vs. vehicle; format: in vivo; settings: 240 h, 1.0 mpk sc once a day for 10 days
The reply should be a number in %, with the unit left off.

Example entries begin here.
| compound | inhibition in vivo at 1 mg/kg [%] |
| --- | --- |
| CNc1nnc(C[C@@H](NC(=O)O[C@@H]2CC[C@]3(CO3)[C@@H]([C@@]3(C)O[C@@H]3CC=C(C)C)[C@@H]2OC)C(C)C)s1 | 1 |
| CO[C@@H]1[C@H](OC(=O)N[C@H](Cc2nnc[nH]2)C(C)C)CC[C@]2(CO2)[C@H]1[C@@]1(C)O[C@@H]1CC=C(C)C | 2.5 |
| CO[C@@H]1[C@H](OC(=O)N[C@@H](C)Cc2noc(=O)[nH]2)CC[C@]2(CO2)[C@H]1[C@@]1(C)O[C@@H]1CC=C(C)C | 4.2 |

The reported inhibition in vivo at 1 mg/kg of the compound CO[C@@H]1[C@H](OC(=O)N[C@@H](Cc2noc(=O)[nH]2)C(C)C)CC[C@]2(CO2)[C@H]1[C@@]1(C)O[C@@H]1CC=C(C)C was 5.4

The recorded inhibition in vivo at 1 mg/kg for entry CO[C@@H]1[C@H](OC(=O)N[C@H](c2ncc[nH]2)C(C)C)CC[C@]2(CO2)[C@H]1[C@@]1(C)O[C@@H]1CC=C(C)C equals 0.7

GET /value?item= CO[C@@H]1[C@H](OC(=O)/C=C/c2ccc(OCCN(C)C)cc2)CC[C@]2(CO2)[C@H]1[C@@]1(C)O[C@@H]1CC=C(C)C [A, reference compound] &field=inhibition in vivo at 1 mg/kg returns 18

Given item CO[C@@H]1[C@H](OC(=O)NCC(C)(C)c2cn(C[C@H]3CCCN3C)cn2)CC[C@]2(CO2)[C@H]1[C@@]1(C)O[C@@H]1CC=C(C)C , the value recorded as its inhibition in vivo at 1 mg/kg is 5.5

====

tested on: Diet Induced Obese (DIO) C57BL/6 mice; test: 10 day DIO mouse model, weight loss vs. vehicle; format: in vivo; conditions: 240 h, 1.0 mpk sc once a day for 10 days
Catalogue of inhibition in vivo at 1 mg/kg readings, one per entry.
Numeric only. Scale: %

Below: 2 molecules and their reported inhibition in vivo at 1 mg/kg.
| molecule | uom | endpoint-result |
| --- | --- | --- |
| CO[C@@H]1[C@H](OC(=O)N[C@H](c2nnc(N)o2)C(C)C)CC[C@]2(CO2)[C@H]1[C@@]1(C)O[C@@H]1CC=C(C)C [Example 1] | % | 2.1 |
| CO[C@@H]1[C@H](OC(=O)N[C@H](c2cn(C[C@H]3CCN(C)C3)cn2)C(C)C)CC[C@]2(CO2)[C@H]1[C@@]1(C)O[C@@H]1CC=C(C)C [Example 15] | % | 8.4 |

// next item, inhibition in vivo at 1 mg/kg requested
Kindly note the recorded inhibition in vivo at 1 mg/kg for CO[C@@H]1[C@H](OC(=O)NCC(C)(C)c2nnc[nH]2)CC[C@]2(CO2)[C@H]1[C@@]1(C)O[C@@H]1CC=C(C)C [Example 39] , which is 7.6
